From: patent US20240317748A1

- Test system: MV-4-11 cells
- measurement protocol: Cell proliferation assay (CellTiter-Glo), MV-4-11
- Type: cell-based, human
- condition context: Homo sapiens, MV4-11, 96 h; MV-4-11 (MLL-AF4), 4 days incubation; read-out: Cell antiproliferation assay MV-4-11 IC50
Here the recorded IC50 is given for each entry.
API: value field is a number in nM; no unit string.

Answered cases to consult:
compound	unit string	IC50
CCN(C(=O)c1cc(F)ccc1Oc1cncnc1N1CC2(CCN(C(=O)[C@@H]3C[C@@]4(CN3)CC4(F)F)CC2)C1)C(C)C	nM	102
CC(C)N(CC(F)F)C(=O)c1cc(F)ccc1Oc1nncnc1N1CC2(CCN(C(=O)[C@H]3NC[C@@H]4CCC[C@@H]43)CC2)C1	nM	17.1
O=C([C@H]1NC[C@@H]2C[C@@H]21)N1CCC2(CC1)CN(c1ncnnc1Oc1ccc(F)cc1-c1cncnc1C1CC1)C2	nM	39
CCN(C(=O)c1cc(F)ccc1Oc1nncnc1N1CC2(CCN(C(=O)[C@@H]3CC(CC#N)CN3)CC2)C1)C(C)C (stereo partly drawn)	nM	153

Identify the reported IC50 for the following entry. CCN(C(=O)c1cc(F)ccc1Oc1nncnc1N1CC2(CCN(C(=O)[C@@H]3NCC[C@H]3C(F)F)CC2)C1)C(C)C [Example 99b] 1930

Identify the reported IC50 for the following entry. `CC(C)n1ncc(Cl)c1-c1cc(F)ccc1Oc1nncnc1N1CC2(CCN(C(=O)[C@@H]3C[C@@H](F)CN3)CC2)C1` 40.6

* * *

Here the recorded IC50 is given for each entry.
- target under test: hERG potassium channel (Homo sapiens)
- Sequence (Q12809 whole entry): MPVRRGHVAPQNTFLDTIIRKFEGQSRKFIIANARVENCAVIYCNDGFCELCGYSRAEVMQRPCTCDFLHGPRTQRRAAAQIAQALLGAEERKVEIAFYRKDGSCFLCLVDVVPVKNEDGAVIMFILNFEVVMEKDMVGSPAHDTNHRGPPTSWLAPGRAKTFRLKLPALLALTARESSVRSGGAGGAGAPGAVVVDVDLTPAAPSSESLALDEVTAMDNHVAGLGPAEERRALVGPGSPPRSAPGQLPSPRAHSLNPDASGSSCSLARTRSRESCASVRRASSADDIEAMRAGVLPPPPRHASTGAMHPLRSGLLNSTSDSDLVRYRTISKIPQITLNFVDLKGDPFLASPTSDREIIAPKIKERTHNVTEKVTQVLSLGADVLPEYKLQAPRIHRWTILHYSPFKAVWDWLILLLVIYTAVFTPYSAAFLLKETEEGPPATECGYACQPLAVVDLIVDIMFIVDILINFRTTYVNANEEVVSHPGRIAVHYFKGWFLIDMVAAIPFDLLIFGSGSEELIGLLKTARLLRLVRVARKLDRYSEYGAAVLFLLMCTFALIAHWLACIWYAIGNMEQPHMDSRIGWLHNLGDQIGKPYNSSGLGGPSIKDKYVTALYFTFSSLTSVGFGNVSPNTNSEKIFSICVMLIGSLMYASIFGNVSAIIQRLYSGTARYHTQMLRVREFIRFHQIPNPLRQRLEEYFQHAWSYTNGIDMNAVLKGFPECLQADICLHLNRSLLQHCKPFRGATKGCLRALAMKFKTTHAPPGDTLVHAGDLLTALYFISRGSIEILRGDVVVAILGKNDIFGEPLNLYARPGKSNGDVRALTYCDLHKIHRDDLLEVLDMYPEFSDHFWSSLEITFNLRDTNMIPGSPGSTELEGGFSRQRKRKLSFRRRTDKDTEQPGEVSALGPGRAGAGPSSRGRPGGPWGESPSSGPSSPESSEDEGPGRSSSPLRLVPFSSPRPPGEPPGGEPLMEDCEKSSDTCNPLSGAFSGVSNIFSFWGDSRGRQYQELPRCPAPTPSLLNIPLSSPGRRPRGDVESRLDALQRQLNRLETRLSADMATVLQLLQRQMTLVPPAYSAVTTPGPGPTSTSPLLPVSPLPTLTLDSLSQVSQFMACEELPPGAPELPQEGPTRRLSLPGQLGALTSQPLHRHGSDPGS
- measurement protocol: hERG inhibition study (Qpatch, CHO-hERG cells)
- condition context: highest test concentration 40 μM

Identify the reported IC50 for the following entry. `CCN(C(=O)c1cc(F)ccc1Oc1cncnc1N1CC2(CCN(C(=O)[C@@H]3C[C@@H](F)CN3)CC2)C1)C(C)C` > 40 µM

Identify the reported IC50 for the following entry. `CCN(C(=O)c1cc(F)ccc1Oc1nncnc1N1CC2(CCN(C(=O)[C@H]3NCC[C@@H]3C)CC2)C1)C(C)C` > 40 µM

Identify the reported IC50 for the following entry. `C[C@H]1CCN[C@@H]1C(=O)N1CCC2(CC1)CN(c1ncnnc1Oc1ccc(F)cc1-c1cncnc1C1CC1)C2` > 40 µM

* * *

- System: MV-4-11 cells
- measurement protocol: Cell proliferation assay (CellTiter-Glo), MV-4-11
- Format: cell-based, human
- condition context: Homo sapiens, MV4-11, 96 h; MV-4-11 (MLL-AF4), 4 days incubation; read-out: Cell antiproliferation assay MV-4-11 IC50
measured attribute: IC50 (µM)
API: value field is a number in µM; no unit string.

Answered cases to consult:
CCN(C(=O)c1cc(F)ccc1Oc1nncnc1N1CC2(CCN(C(=O)[C@@H]3NCCC3(C)C)CC2)C1)C(C)C 0.308
CCN(C(=O)c1cc(C#N)ccc1Oc1cncnc1N1CC2(CCN(C(=O)[C@@H]3C[C@@H](F)CN3)CC2)C1)C(C)C 0.317

Identify the reported IC50 for the following entry. `CCN(C(=O)c1cc(F)ccc1Oc1cncnc1N1CC2(CCN(C(=O)[C@@H]3C[C@H](F)CN3)CC2)C1)C(C)C` 0.329

Identify the reported IC50 for the following entry. `O=C([C@@H]1C[C@@H](F)CN1)N1CCC2(CC1)CN(c1ncncc1Oc1ccc(F)cc1C(=O)N1C3CCC1COC3)C2` 0.159

Identify the reported IC50 for the following entry. `CCN(C(=O)c1cc(F)ccc1Oc1nncnc1N1CC2(CCN(C(=O)[C@@H]3NCC[C@H]3CF)CC2)C1)C(C)C` 1.01

Identify the reported IC50 for the following entry. `C[C@H]1CN[C@H](C(=O)N2CCC3(CC2)CN(c2ncnnc2Oc2ccc(F)cc2-c2cncnc2C2CC2)C3)C1` 0.0563

Identify the reported IC50 for the following entry. `O=C([C@H]1NC[C@@H]2CCC[C@@H]21)N1CCC2(CC1)CN(c1ncnnc1Oc1ccc(F)cc1-c1ccc(=O)[nH]c1C1CC1)C2` 0.0094
